Below is a list of entries, each paired with its recorded %Inh value.
- Test system: CAMKK2
- SETTINGS: concentration: 1 μM, replicates: in singlicate; n = 1;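 note: KINOMEscan kinase panel screen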

{"COMPOUND": "FC(F)(F)c1ccc(/C=C/c2cncnc2Nc2ccc3[nH]c(Cc4ccccc4)nc3c2)cc1 [GW709199]", "ATTRIBUTE MEASURED": "%Inh", "READOUT VALUE": "0%"}

compound Nc1ncc(-c2cccnc2)c2scc(-c3ccc4c(c3)CCN4C(=O)Cc3ccccc3)c12 [GSK683281] , %Inh observed: 26%

Form field %Inh, entry c1ccc(Oc2ccc(Nc3ccnc4cc(-c5ccc(CNCCN6CCOCC6)o5)ccc34)cc2)nc1 [GW567145] : 0%

Per the record, Cc1ccc(F)c(C(=O)Nc2cccc(-c3nn4ccccc4c3-c3ccnc(Nc4cccc(F)c4)n3)c2)c1F [GSK361061] has %Inh of 14%

%Inh recorded for this compound, COc1ccc(Nc2nccc(N3CCC(NC(=O)Nc4cccc(OC)c4)C3)n2)cc1 (stereo not shown) [GSK1379742] , is 4%

Reported %Inh for COc1cccc(NC(=O)NC2CCN(c3ccnc(Nc4cc(OC)c(OC)c(OC)c4)n3)C2)c1 (stereo not shown) [GSK1379763] was 36%

GET /value?item= O=C(Nc1cccc(Oc2ccc3nc(NC(=O)C4CC4)cn3n2)c1)c1ccccc1C(F)(F)F &field=%Inh returns 0%

Please fill in: %Inh reported for Cn1cc(-c2ccc3c(c2)CCN3C(=O)Cc2cccc(F)c2)c2c(N)ncnc21 [GSK2603358] = 29%

Consider CC(C)(C)c1ccc2nccc(Nc3cccc(O)c3)c2c1 [GW856795] . Its measured %Inh is 0%

// COc1cc(Nc2nccc(N3CCC(NC(=O)Nc4cccc(C(C)=O)c4)C3)n2)cc(OC)c1OC (stereo not shown) [GSK1379753] : %Inh value = 4%

%Inh in this record for O=C(Nc1cccc(-c2nn3ncccc3c2-c2ccnc(Nc3ccccc3)n2)c1)c1c(F)cccc1F [GSK198271] : 8%

The reported %Inh of the compound O=C(O)C(F)(F)F.O=C(O)C(F)(F)F.O=c1[nH]ccc2nc(N[C@@H]3CCCNC3)nc(Nc3ccc(S(=O)(=O)N4CCOCC4)cc3)c12 [GSK2177277] was 57%

The compound listed as CC(C)c1nc(-c2cccc(NS(=O)(=O)c3c(F)cccc3F)c2F)c(-c2ccnc(Nc3ccc(N4CCOCC4)nc3)n2)s1 [GSK2008607] shows %Inh equal to 15%

Lookup result for Cc1cccc(Nc2nc(N[C@H]3CCNC3)ncc2C(N)=O)c1.Cl [GSK2197149] ; measured %Inh: 17%

For record Clc1ccc(-c2nn3ncccc3c2-c2ccnc(Nc3ccc4c(c3)OCCO4)n2)cc1 [GW829116] the listed %Inh is 0%

Lab note: Cc1ccc(C(=O)Nc2ccc(Nc3ccnc4cc(-c5nccs5)ccc34)cc2O)cc1.Cl [GW494702] gave %Inh of 6%

---

Form field: %Inh (one value per entry).
- Test system: ULK2
- SETTINGS: concentration: 1 μM, replicates: in singlicate; n = 1
Number only, in %; omit the unit.

{"MOLECULE": "CN1CCN(Cc2cccc(-c3ccc4c(Nc5ccc(Oc6ccccc6)cc5)ccnc4c3)c2)CC1", "ATTRIBUTE MEASURED": "%Inh", "READOUT VALUE": 0}
{"MOLECULE": "O=C(Nc1n[nH]c2nc(-c3ccc(O)cc3)ccc12)C1CC1", "ATTRIBUTE MEASURED": "%Inh", "READOUT VALUE": 21}
{"MOLECULE": "COc1cccc(C2=C(Nc3ccc(Cl)c(C(=O)O)c3)C(=O)NC2=O)c1", "ATTRIBUTE MEASURED": "%Inh", "READOUT VALUE": 100}
{"MOLECULE": "Cl.Cl.NCC(C(=O)Nc1cc(Br)c(-c2ccnc3[nH]ccc23)s1)c1ccccc1 (centres unmarked)", "ATTRIBUTE MEASURED": "%Inh", "READOUT VALUE": 0}

Noted for Clc1ccc(-c2nn3ncccc3c2-c2ccnc(Nc3ccc4c(c3)OCCO4)n2)cc1 : its %Inh reads 0

Per the record, COc1ccc(CNC(=O)NC2CCN(c3ccnc(Nc4ccc(F)cc4)n3)CC2)cc1 has %Inh of 0

---

- Tested on: ABL1-nonphosphorylated
- SETTINGS: concentration: 1 μM, replicates: in singlicate; n = 1
ATTRIBUTE MEASURED: %Inh (%)
Please reply with the bare figure in % and do not write the unit itself.

Solved cases (5 shown):
{"MOLECULE": "COc1cccc(C(=O)Nc2cccc(Oc3ccc4nc(NC(=O)C5CC5)cn4n3)c2)c1", "UNIT": "%", "%Inh": 100}
{"MOLECULE": "COc1cc2c(cc1OCCN1CCNCC1)ncc1c3ccc(C#N)cc3[nH]c21", "UNIT": "%", "%Inh": 68}
{"MOLECULE": "O=C(Nc1cccc(Oc2ccc3nc(NC(=O)C4CC4)cn3n2)c1)c1ccccc1C(F)(F)F", "UNIT": "%", "%Inh": 100}
{"MOLECULE": "CCn1c(-c2nonc2N)nc2c(C#CC(C)(C)O)ncc(OCCCCN)c21.O=C(O)C(F)(F)F.O=C(O)C(F)(F)F", "UNIT": "%", "%Inh": 0}
{"MOLECULE": "Fc1ccc(-c2ncn(C3CCNCC3)c2-c2ccnc(Oc3ccc(-c4ccccc4)cc3)n2)cc1", "UNIT": "%", "%Inh": 1}

Query Cl.Cl.NCC(NC(=O)c1cc(-c2ccccc2)c(-c2ccnc3[nH]ccc23)s1)c1ccccc1 (stereo not shown) yields %Inh of 89

Just so you know, measured %Inh for Cl.Cl.NCC(NCc1ccc(-c2ccnc3[nH]ccc23)s1)c1ccccc1 (stereo not shown) came out at 0

Note to self: %Inh recorded for Cl.c1ccc(-c2ccc3c(Nc4ccc5[nH]ncc5c4)ccnc3c2)nc1 was 63

For FC(F)(F)c1ccc(/C=C/c2cncnc2Nc2ccc3[nH]c(Cc4ccccc4)nc3c2)cc1 the molecule record lists %Inh as 35

Query COc1ccc(Nc2nccc(NCCNC(=O)c3cc4ccccc4s3)n2)cc1 yields %Inh of 0

The recorded %Inh for entry CC(=O)N1CCN(c2ccc(Nc3nccc(-c4sc(C(C)C)nc4-c4cccc(NS(=O)(=O)c5cccc(Cl)c5)c4)n3)cn2)CC1 equals 95.8

Memo: Cc1cccc(Nc2nc(N[C@H]3CCNC3)ncc2C(N)=O)c1.Cl , reported %Inh: 40

get_value(item= Nc1ncc(-c2ccc3nccc(-c4ccncc4)c3c2)cc1S(=O)(=O)N1CCOCC1 , readout=%Inh) returns 0

The measured %Inh associated with CN(C)Cc1ccc(-c2ccc3c(Nc4ccc(Oc5ccccn5)cc4)ccnc3c2)o1 reads 89

%Inh in this record for Cc1ccc(S(=O)(=O)Nc2ccc(Nc3nccc(Nc4cccc5[nH]ncc45)n3)cc2)cc1 : 11

The molecule COC(=O)Nc1nc2cc(Oc3ccc(NC(=O)Nc4cc(C(F)(F)F)ccc4F)cn3)ccc2[nH]1.Cl.Cl showed %Inh equal to 99.1

---

- Tested on: JNK1
- Construct: gene MAPK8
- SETTINGS: concentration: 1 μM, replicates: in singlicate; n = 1
Kind request: treat 6% as inclusive, so %Inh at 6% or higher is TRUE, anything lower is FALSE.

Solved cases below.
{"COMPOUND": "O=C(O)C(F)(F)F.O=C(O)C(F)(F)F.O=c1[nH]ccc2nc(N[C@@H]3CCCNC3)nc(Nc3ccc(S(=O)(=O)N4CCOCC4)cc3)c12", "QUALITATIVE LABEL": "TRUE"}
{"COMPOUND": "CN1CCN(Cc2cccc(-c3ccc4c(Nc5ccc(Oc6ccccc6)cc5)ccnc4c3)c2)CC1", "QUALITATIVE LABEL": "FALSE"}
{"COMPOUND": "COc1cc(Nc2nccc(N3CCC(NC(=O)c4cc5ccccc5s4)C3)n2)cc(OC)c1OC (centres unmarked)", "QUALITATIVE LABEL": "TRUE"}
{"COMPOUND": "Cl.c1ccc(-c2ccc3c(Nc4ccc5[nH]ccc5c4)ccnc3c2)nc1", "QUALITATIVE LABEL": "FALSE"}
{"COMPOUND": "CCn1c(-c2nonc2N)nc2c(C#CC(C)(C)O)nc(OC[C@H](N)c3ccccc3)cc21", "QUALITATIVE LABEL": "FALSE"}
{"COMPOUND": "CN(c1ccc(NC(=O)Nc2cc(C(F)(F)F)ccc2F)cc1)c1ccnc(Nc2ccc(S(N)(=O)=O)cc2)n1", "QUALITATIVE LABEL": "TRUE"}

Field: next compound
Is %Inh at least 6%? Consider O=c1[nH]cc(-c2ccc(N3CCOCC3)cc2)c2sc(-c3cn[nH]c3)cc12
TRUE
